Values from ChEMBL document CHEMBL1201862

system: NCI-H522; assay: NCI tumour cell line growth inhibition, 48 h
Active and inactive are the calls of the source. No stated cut-off is given here; in the data, active = GI50 up to about 1.1 µM and inactive = higher.
Classes used: TRUE for active, FALSE for inactive

>>> discretelabel("C[Si](C)(C)/C(I)=C/CO")
"FALSE"
>>> discretelabel("COC(=O)C(Cc1ccccc1)/N=C/c1c(O)c(O)c(C(C)C)c2cc(C)c(-c3c(C)cc4c(C(C)C)c(O)c(O)c(/C=N/C(Cc5ccccc5)C(=O)OC)c4c3O)c(O)c12 (centres undefined)")
"FALSE"
>>> discretelabel("CN(C)c1nc2n(CCO)c(-c3ccccc3)c(-c3ccccc3)nc-2c(=O)n1")
"FALSE"
>>> discretelabel("COc1cc(NS(C)(=O)=O)ccc1Nc1ccnc2ccc3[nH]ccc3c12")
"FALSE"
>>> discretelabel("N#Cc1ccc(Oc2ccccc2)cc1C#N")
"FALSE"
>>> discretelabel("CC(C)(O)C1CC(=O)C(C)(C2C(O)CC3(C)C4CC=C5C(CCC(O)C5(C)C)C4(C)C(=O)CC23C)O1 (centres undefined)")
"FALSE"
>>> discretelabel("O/N=C1\\CCc2cc3c(cc21)CCC3")
"FALSE"
>>> discretelabel("COc1cc(C2c3cc4c(cc3OC(NNC(N)=S)C2C)OCO4)cc(OC)c1OC (centres undefined)")
"TRUE"
>>> discretelabel("C=C1C[C@@H](O)C[C@@]2(C)C[C@@H]3OC(=O)C(=C)[C@@H]3C[C@H]12")
"FALSE"
